Numbers sourced from PubChem BioAssay.

- method: small-molecule binders of probe aNOTCH3, primary screen, biochemical, small-molecule microarray, 635/667 nm fluorescence (AID 1120);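 also: probe is a biotin-tagged antibody raised against NOTCH3 rather than NOTCH3 protein; score merges spot fluorescence near 667 nm with spot signal to noise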
- cond: higher = more signal
Please note: True applies when composite z-score is 0.1 or greater, and False applies otherwise.

Asked: Quick check, composite z-score >= 0.1? `C=C[C@@H](C)[C@H](O)c1ccc(OCCO)cc1`
Given back: False

Asked: Quick check, composite z-score >= 0.1? `Cc1ccc(S[C@]2(C(=O)NCC(C)C)CC(=O)N(C3Cc4ccccc4C3)[C@@H]2c2ccc(CO)cc2I)cc1`
Given back: False

---

A collection of molecules and their measured composite z-score
- target or test system: Neurogenic locus notch homolog protein 2 (Homo sapiens) (UniProt Q04721)
- Sequence (Q04721 whole entry, looked up): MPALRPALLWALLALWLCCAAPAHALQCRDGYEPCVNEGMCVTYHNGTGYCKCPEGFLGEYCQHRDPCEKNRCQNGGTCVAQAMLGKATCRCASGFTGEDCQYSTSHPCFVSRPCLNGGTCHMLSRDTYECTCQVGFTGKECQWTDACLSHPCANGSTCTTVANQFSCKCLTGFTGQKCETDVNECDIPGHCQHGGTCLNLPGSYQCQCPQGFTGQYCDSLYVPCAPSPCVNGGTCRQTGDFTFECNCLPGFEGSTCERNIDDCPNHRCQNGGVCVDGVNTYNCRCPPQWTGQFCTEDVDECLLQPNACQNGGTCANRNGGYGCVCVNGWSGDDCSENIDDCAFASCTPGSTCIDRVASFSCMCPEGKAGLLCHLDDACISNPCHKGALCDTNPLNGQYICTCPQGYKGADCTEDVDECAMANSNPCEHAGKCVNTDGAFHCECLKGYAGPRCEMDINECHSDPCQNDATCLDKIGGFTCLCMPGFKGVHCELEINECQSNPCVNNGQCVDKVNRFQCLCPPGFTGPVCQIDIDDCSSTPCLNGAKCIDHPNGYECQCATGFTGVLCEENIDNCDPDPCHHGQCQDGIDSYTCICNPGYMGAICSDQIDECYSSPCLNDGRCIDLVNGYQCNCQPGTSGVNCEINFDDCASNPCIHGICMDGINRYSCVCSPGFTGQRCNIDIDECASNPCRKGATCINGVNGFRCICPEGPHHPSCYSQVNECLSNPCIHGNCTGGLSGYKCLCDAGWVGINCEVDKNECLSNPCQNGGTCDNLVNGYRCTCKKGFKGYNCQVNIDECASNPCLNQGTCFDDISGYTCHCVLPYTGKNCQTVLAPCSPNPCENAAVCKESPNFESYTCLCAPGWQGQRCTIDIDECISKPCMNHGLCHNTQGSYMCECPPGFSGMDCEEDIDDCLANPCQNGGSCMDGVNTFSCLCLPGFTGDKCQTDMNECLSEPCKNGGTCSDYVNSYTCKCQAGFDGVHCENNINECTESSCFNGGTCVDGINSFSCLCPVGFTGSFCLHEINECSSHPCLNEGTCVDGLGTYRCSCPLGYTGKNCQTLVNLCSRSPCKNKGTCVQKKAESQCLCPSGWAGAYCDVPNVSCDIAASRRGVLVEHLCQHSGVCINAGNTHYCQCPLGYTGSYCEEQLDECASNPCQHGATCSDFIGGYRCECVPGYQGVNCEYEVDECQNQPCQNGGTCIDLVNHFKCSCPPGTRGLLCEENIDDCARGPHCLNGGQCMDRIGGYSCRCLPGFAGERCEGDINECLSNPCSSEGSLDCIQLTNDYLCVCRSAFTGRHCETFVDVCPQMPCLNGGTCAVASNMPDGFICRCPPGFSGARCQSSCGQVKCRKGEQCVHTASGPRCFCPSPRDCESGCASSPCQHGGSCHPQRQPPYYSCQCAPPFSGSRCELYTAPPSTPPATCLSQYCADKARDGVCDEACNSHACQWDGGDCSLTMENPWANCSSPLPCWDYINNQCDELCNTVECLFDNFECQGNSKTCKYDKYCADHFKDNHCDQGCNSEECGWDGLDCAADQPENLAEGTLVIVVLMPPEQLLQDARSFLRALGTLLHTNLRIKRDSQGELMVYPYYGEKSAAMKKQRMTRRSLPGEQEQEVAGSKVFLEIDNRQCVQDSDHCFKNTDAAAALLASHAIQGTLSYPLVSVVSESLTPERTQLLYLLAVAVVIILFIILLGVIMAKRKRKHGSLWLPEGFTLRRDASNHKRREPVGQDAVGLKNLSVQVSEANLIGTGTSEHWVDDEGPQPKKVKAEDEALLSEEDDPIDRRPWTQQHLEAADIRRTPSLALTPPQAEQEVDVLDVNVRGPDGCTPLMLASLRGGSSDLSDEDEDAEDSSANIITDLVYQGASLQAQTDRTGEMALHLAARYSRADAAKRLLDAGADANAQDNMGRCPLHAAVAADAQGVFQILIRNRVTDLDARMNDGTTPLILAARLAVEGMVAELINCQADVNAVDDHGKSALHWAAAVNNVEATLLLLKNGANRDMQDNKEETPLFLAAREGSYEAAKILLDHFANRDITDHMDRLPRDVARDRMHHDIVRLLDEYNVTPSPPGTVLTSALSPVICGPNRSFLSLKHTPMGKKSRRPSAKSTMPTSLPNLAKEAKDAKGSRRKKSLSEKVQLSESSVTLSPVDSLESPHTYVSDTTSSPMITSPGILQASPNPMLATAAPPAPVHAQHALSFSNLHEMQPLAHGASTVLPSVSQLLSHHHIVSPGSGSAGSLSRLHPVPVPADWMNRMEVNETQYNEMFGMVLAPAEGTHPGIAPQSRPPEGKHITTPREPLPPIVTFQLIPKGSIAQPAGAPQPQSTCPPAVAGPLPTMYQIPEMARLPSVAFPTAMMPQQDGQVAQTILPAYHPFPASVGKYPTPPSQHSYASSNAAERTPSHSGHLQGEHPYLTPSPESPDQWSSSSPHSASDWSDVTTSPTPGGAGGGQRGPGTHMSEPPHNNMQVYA
- method: Notch2 binders on small-molecule microarrays, primary screen, biochemical, small-molecule microarray, 635 nm fluorescence, stem cell growth factors (AID 1073)
- cond: Notch2 binding, higher = more signal
Answer using only a numeral; do not append any unit.

INSERT INTO measurements (record_smiles, reported_endpoint, measured_result) VALUES
  ('COCCCNC(=O)[C@@]1(c2ccc([N+](=O)[O-])cc2)CC(=O)N(CC23CC4CC(CC(C4)C2)C3)[C@@H]1c1ccc(CO)cc1I', 'composite z-score', 0.218);

Asked: Given `O=C1O[C@H](c2ccccc2)[C@H](c2ccccc2)N2[C@H]1[C@@H](C(=O)N1CCCCCCC1)[C@]1(C(=O)Nc3ccc(C#CC4(O)CCCCCC4)cc31)[C@H]2c1ccc(O)cc1` , report its composite z-score on Neurogenic locus notch homolog protein 2 (Homo sapiens) (UniProt Q04721).
Given back: 1.36

Asked: Given `C[C@@H]1ON(c2ccc(I)cc2)[C@H](c2ccc(OC(=O)OC(C)(C)C)cc2)[C@H]1C(=O)N1C(=O)OC[C@H]1Cc1ccccc1` , report its composite z-score on Neurogenic locus notch homolog protein 2 (Homo sapiens) (UniProt Q04721).
Given back: 0.756

---

A collection of compounds and their measured composite z-score
- target or test system: Torsin-1A-interacting protein 1 (Homo sapiens) (UniProt Q5JTV8)
- Sequence (Q5JTV8 whole entry, looked up): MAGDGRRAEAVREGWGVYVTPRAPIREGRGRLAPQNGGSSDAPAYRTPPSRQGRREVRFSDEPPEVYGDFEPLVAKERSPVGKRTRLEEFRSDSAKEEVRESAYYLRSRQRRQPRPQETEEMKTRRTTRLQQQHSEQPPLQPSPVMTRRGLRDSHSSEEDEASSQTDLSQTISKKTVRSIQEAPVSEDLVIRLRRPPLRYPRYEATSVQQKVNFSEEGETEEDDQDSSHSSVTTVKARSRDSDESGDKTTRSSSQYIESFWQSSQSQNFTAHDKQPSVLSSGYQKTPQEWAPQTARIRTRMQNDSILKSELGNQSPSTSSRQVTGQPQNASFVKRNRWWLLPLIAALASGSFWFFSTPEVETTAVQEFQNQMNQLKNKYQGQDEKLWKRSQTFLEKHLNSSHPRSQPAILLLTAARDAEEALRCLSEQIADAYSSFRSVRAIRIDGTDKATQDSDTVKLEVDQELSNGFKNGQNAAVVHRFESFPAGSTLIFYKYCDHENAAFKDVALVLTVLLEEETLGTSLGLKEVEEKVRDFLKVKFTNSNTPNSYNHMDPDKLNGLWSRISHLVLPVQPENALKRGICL
- method: LAP1 binders from COS7 cell lysate, primary screen, small-molecule microarray, 635/667 nm fluorescence (AID 1116)
- cond: COS7-hLAP1 lysate binding, 635 nm fluorescence, higher = more signal
Answer using only a numeral; do not append any unit.

Take a look at these entries with their results.
INSERT INTO measurements (compound, reported_endpoint, measured_result) VALUES
  ('CC(=O)N1CC(C(O)C2C=CC3C(=O)NC(=O)C3N2Nc2ccc(Cl)cc2Cl)c2ccccc21 (centres undefined)', 'composite z-score', 0.033),
  ('COC(=O)[C@@]1(Cc2ccc(OC)cc2)[C@H]2c3cc(C(=O)N4CCCC4)n(Cc4ccc(OC(F)(F)F)cc4)c3C[C@H]2CN1C(=O)c1ccccc1', 'composite z-score', -0.401),
  ('COc1ccc(C(=O)Nc2cccc(CN3C(=O)[C@]4(O[C@H](CCn5cc([C@H](O)c6ccccc6)nn5)[C@@H]([Si](C)(C)c5ccc(OC)cc5)[C@@H]4C)c4ccccc43)c2)cc1', 'composite z-score', 0.361);

Asked: Provide composite z-score value for the following compound: `CN(C)CCCCCCNC(=O)[C@@H]1C[C@@H]2C(=O)N[C@@H](CCCCN)C(=O)N2[C@@H]1c1ccc(O)cc1`
Given back: 4.63

---

- target or test system: Pro-neuregulin-1, membrane-bound isoform (Homo sapiens) (UniProt Q02297)
- Sequence (Q02297 whole entry, looked up, canonical isoform): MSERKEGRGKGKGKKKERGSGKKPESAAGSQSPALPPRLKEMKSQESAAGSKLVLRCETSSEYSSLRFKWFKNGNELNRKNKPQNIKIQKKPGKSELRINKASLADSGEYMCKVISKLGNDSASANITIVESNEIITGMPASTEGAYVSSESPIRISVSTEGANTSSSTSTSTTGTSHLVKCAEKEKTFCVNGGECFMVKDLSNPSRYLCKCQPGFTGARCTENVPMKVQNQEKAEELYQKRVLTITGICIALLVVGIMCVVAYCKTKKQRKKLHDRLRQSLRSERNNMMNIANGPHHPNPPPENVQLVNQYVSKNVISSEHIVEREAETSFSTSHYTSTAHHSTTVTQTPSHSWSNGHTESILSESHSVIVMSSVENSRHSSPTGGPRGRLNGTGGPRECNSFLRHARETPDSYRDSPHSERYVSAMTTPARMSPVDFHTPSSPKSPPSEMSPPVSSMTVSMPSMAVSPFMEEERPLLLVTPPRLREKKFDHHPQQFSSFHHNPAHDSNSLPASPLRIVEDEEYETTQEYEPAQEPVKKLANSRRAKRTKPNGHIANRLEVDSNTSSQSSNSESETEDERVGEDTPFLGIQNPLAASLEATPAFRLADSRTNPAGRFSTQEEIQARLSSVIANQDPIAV
- method: NRG1 binders on small-molecule microarrays, primary screen, psychiatric disease protein project, biochemical, small-molecule microarray, fluorescence 635/667 (AID 1075);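 also: score combines 667 nm spot fluorescence with signal to noise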
- cond: NRG1 binding, 635 nm fluorescence, higher = more signal
Please note: Met applies when composite z-score is 1 or greater, and Not met applies otherwise.

Reference set (6 entries):
INSERT INTO measurements (molecule, class) VALUES
  ('CN1C(=O)C2C(C1=O)C1C=C(CCCO)C2C(C2CC2)N1Cc1cc2c(cc1Br)OCO2 (configuration not stated)', 'Met'),
  ('CCCCCN1CC=CC23O[C@@H]4C=CCOC(=O)[C@@H]4[C@H]2C(=O)N(CCO)[C@@H]3C1=O (some centres not stated)', 'Met'),
  ('CCCCC(=O)N(CCN1CCOCC1)[C@@H]1CC(C(=O)NCCO)=C[C@H](Oc2c(I)cc(CO)cc2OC)[C@H]1O', 'Not met'),
  ('COCCOC(=O)N1C(=O)[C@@]2(c3cc(C#CCNC(N)=O)ccc31)[C@H](c1ccc(O)cc1)N1[C@H](c3ccccc3)[C@H](c3ccccc3)OC(=O)[C@H]1[C@@H]2C(=O)N1CCN(c2ncccn2)CC1', 'Met'),
  ('CCCNC(=O)[C@@]1(Sc2ccc(C)cc2)CC(=O)N(C2CCCCC2)[C@@H]1c1ccc(CO)cc1I', 'Not met'),
  ('CCCCCN1CC=CC23O[C@@H]4/C=C\CCC(C)OC(=O)C4[C@H]2C(=O)N(CCCCCCO)[C@@H]3C1=O (some centres not stated)', 'Met');

Asked: Quick check, composite z-score >= 1? `CCCCC(=C=CC[C@H](O)c1ccc(OCCO)cc1)C[C@H](O)c1cc(Cl)cc(Cl)c1O`
Given back: Met

---

- target or test system: NADPH oxidase 2 (Homo sapiens) (UniProt P04839)
- Sequence (P04839 whole entry, looked up): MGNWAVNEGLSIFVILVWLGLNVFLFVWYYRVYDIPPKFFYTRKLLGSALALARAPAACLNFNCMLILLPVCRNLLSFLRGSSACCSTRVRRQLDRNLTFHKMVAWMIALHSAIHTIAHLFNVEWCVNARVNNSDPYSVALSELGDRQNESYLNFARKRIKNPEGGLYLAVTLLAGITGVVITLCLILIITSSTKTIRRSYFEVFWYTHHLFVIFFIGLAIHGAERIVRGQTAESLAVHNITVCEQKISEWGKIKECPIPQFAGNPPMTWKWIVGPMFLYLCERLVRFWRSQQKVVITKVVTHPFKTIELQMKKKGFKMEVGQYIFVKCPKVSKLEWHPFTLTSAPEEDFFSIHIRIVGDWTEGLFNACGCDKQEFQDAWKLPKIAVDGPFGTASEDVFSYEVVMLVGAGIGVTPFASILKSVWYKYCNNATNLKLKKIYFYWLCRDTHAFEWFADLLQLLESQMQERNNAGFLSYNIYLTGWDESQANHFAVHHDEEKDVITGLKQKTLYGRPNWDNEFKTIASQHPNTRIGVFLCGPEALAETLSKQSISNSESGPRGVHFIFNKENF
- method: NOX2-dependent H2O2 signal modulators, primary screen, NOX inhibitor project, cell-based, HEK293-NOX2, PMA-stimulated, Amplex Red fluorescence (AID 1159); also: test concentration not given here
- cond: 45 min, higher = more signal, called active from +8 up or from −8 down
Please note: Criterion met applies when z-score is 0.8 or greater, and Criterion not met applies otherwise.

Reference set (10 entries):
INSERT INTO assay_data (compound, class) VALUES
  ('CCOC(=O)C[C@H]1[C@H](OC(=O)c2ccccc2-c2ccccc2)[C@@H](NC(=O)c2ccccc2)c2cc(OCCCO)ccc2N1C(=O)c1ccccc1', 'Criterion not met'),
  ('CCOC(=O)C[C@H]1[C@H](OC(=O)c2ccc(C(=O)c3ccccc3)cc2)[C@@H](NC(=O)CC(C)C)c2cc(OCCCO)ccc2N1C(=O)Cc1ccc(OC)cc1', 'Criterion not met'),
  ('COCCOC(=O)N1C(=O)[C@@]2(c3cc(C#CC4(O)CCCCCC4)ccc31)[C@H](C(=O)N1CCN(c3ncccn3)CC1)[C@H]1C(=O)O[C@H](c3ccccc3)[C@H](c3ccccc3)N1[C@@H]2c1ccccc1OCCO', 'Criterion met'),
  ('O=C1C[C@@](C(=O)NCc2ccccc2)(c2ccc([N+](=O)[O-])cc2)[C@@H](c2ccc(CO)cc2I)N1CC12CC3CC(CC(C3)C1)C2', 'Criterion not met'),
  ('C=CCC(OC(C)=O)[C@@H]1[C@@H](N(Cc2ccc(-c3cccc(C(F)(F)F)c3)o2)C(=O)c2ccc(C)cc2)c2cc(OCCCO)ccc2N1C(=O)Cc1ccc(OC)cc1 (stereo partly specified)', 'Criterion not met'),
  ('COCCOC(=O)N1C(=O)[C@@]2(c3cc(C#CCNC(N)=O)ccc31)[C@H](c1ccc(O)cc1)N1[C@H](c3ccccc3)[C@H](c3ccccc3)OC(=O)[C@H]1[C@@H]2C(=O)N1CCN(c2ncccn2)CC1', 'Criterion met'),
  ('O=C(O)[C@H]1C[C@H]2C(=O)N[C@@H](Cc3ccccc3)C(=O)N2[C@H]1c1cccc(OCCO)c1', 'Criterion not met'),
  ('C=CCC(OC(C)=O)[C@@H]1[C@@H](N(Cc2ccc(-c3ccccc3)cc2)C(=O)Cc2ccc(F)cc2)c2cc(OCCCO)ccc2N1C(=O)Cc1ccc2ccccc2c1 (stereo partly specified)', 'Criterion not met'),
  ('CN1C(=O)C2C(C1=O)C1C=C(CCCO)C2C(c2cccs2)N1Cc1cc2c(cc1Br)OCO2 (stereo unspecified)', 'Criterion not met'),
  ('CCOC(=O)C1=C[C@@H](C(C)(C)C)N(S(=O)(=O)c2ccc(C)cc2)[C@H]1c1ccc(C)cc1', 'Criterion not met');

Asked: Quick check, z-score >= 0.8? `[N-]=[N+]=NCc1ccccc1[C@H]1OC(c2ccc(OCCCO)cc2)=N[C@@]1(CCS(=O)(=O)c1ccccc1)C(=O)NCc1ccccc1`
Given back: Criterion met

Asked: Quick check, z-score >= 0.8? `CC(C)[Si]1(C(C)C)OCc2cc(-c3ccc(-c4ccc(Cl)c(Cl)c4)o3)nc(CCc3ccccc3)c21`
Given back: Criterion not met

Asked: Quick check, z-score >= 0.8? `O=C1N[C@@H](Cc2ccccc2)C(=O)N2[C@@H]1C[C@@H](C(=O)O)[C@H]2c1ccc(O)cc1`
Given back: Criterion not met

Asked: Quick check, z-score >= 0.8? `CCCC=C(CCC)[C@@H](NC(=O)CCc1ccccc1)c1ccc(C(F)(F)F)cc1`
Given back: Criterion not met

Asked: Quick check, z-score >= 0.8? `COCCOC(=O)N1C(=O)[C@@]2(c3cc(C#Cc4ccc(OC)cc4)ccc31)[C@H](c1ccc(OCCO)cc1)N1[C@H](c3ccccc3)[C@H](c3ccccc3)OC(=O)[C@H]1[C@@H]2C(=O)Nc1nc2ccccc2s1`
Given back: Criterion met

Asked: Quick check, z-score >= 0.8? `COc1ccc([Si](C)(C)[C@H]2[C@H](CC(=O)N3Cc4ccccc4C[C@H]3CO)O[C@@]3(C(=O)N(Cc4ccc(N5C(=O)c6cccc7cccc5c67)cc4)c4ccccc43)[C@@H]2C)cc1`
Given back: Criterion not met

Asked: Quick check, z-score >= 0.8? O=C1OCC=C[C@H]2OC34C=CCN(c5ccc6ccccc6c5)C(=O)[C@H]3N(CCCCCO)C(=O)[C@@H]4[C@@H]12 (stereo partly specified)
Given back: Criterion met

Asked: Quick check, z-score >= 0.8? `CCOC(=O)C1=C[C@@H](c2ccccc2)N(S(=O)(=O)c2ccc(C)cc2)[C@H]1c1ccccc1`
Given back: Criterion not met

Asked: Quick check, z-score >= 0.8? COc1cc(C(O)C2C=CC3C(=O)N(Cc4ccccc4)C(=O)C3N2n2cnnc2)cc(OC)c1OC (stereo unspecified)
Given back: Criterion met

Asked: Quick check, z-score >= 0.8? `COCCOC(=O)N1C(=O)[C@@]2(c3cc(C#CCC(C(=O)OC)C(=O)OC)ccc31)[C@H](C(=O)NC[C@H](O)c1ccccc1)[C@H]1C(=O)O[C@H](c3ccccc3)[C@H](c3ccccc3)N1[C@@H]2c1ccc(O)cc1`
Given back: Criterion met

Asked: Quick check, z-score >= 0.8? `O=C1N(CCS(=O)(=O)c2ccccc2)Cc2ccccc2[C@@H]2OC(c3ccc(OCCCO)cc3)=N[C@]12CCS(=O)(=O)c1ccccc1`
Given back: Criterion met

Asked: Quick check, z-score >= 0.8? `C=C(COC)C(=O)CC[C@H](OC(C)=O)c1ccc(OCCO)cc1`
Given back: Criterion not met

Asked: Quick check, z-score >= 0.8? `Cc1ccc(S[C@]2(C(=O)NCC(C)C)CC(=O)N(C3Cc4ccccc4C3)[C@@H]2c2ccc(CO)cc2I)cc1`
Given back: Criterion met

Asked: Quick check, z-score >= 0.8? `O=C1O[C@H](c2ccccc2)[C@H](c2ccccc2)N2[C@H]1[C@@H](C(=O)N1CCCCCCC1)[C@]1(C(=O)Nc3ccc(C#CC4(O)CCCCCC4)cc31)[C@H]2c1ccc(O)cc1`
Given back: Criterion met

Asked: Quick check, z-score >= 0.8? Cc1ccccc1C(O)C1C=CC2C(=O)N(c3ccccc3)C(=O)C2N1Nc1ccc([N+](=O)[O-])cc1 (stereo unspecified)
Given back: Criterion not met
